# experimental target: E. coli IleRS (Escherichia coli)
# Construct: purified recombinant E. coli IleRS
# Sequence (P00956 2-938): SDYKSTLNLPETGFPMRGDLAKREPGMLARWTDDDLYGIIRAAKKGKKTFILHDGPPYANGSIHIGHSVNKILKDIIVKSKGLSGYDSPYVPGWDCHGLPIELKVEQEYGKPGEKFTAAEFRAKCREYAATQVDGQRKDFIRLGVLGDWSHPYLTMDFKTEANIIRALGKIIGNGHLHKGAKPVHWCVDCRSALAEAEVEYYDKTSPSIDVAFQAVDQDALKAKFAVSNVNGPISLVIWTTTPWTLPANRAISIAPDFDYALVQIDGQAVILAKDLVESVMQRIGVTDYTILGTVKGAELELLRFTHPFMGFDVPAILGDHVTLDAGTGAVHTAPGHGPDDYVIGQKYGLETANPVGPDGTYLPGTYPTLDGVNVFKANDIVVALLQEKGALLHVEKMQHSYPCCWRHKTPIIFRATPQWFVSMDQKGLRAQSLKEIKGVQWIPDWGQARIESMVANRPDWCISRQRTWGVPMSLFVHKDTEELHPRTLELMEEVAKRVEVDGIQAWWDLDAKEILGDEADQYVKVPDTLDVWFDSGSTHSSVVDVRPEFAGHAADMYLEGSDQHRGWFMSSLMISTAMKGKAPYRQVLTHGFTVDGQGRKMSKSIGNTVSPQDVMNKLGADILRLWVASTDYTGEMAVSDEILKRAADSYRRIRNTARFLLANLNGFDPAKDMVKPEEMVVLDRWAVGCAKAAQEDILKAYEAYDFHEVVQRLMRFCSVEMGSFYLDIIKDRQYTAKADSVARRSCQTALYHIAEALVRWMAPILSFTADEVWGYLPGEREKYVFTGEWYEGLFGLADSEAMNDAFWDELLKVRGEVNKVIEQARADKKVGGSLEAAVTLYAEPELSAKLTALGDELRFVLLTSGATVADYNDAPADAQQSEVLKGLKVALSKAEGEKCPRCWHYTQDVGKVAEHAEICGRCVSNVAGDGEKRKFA
# test protocol: radiolabel aminoacyl transfer assay ([…]-Ile to tRNA, TCA precipitation)
measured attribute: IC50 (nM)
Numeric only. Scale: nM

Input: Which measured IC50 value corresponds to CC[C@H](C)[C@H](N)C(=O)NS(=O)(=O)OC[C@H]1O[C@@H](n2cnc3c(NC)ncnc32)[C@H](O)[C@@H]1O ?
Output: 13.9

---

# experimental target: E. coli IleRS (Escherichia coli)
# Construct: purified recombinant E. coli IleRS
# test protocol: radiolabel aminoacyl transfer assay ([…]-Ile to tRNA, TCA precipitation)
measured attribute: IC50 (nM)
Numeric only. Scale: nM

Input: Item: CC[C@H](C)[C@H](N)C(=O)NS(=O)(=O)OC[C@H]1O[C@@H](n2cnc3c(OC)ncnc32)[C@H](O)[C@@H]1O [6f] Test system: E. coli IleRS (Escherichia coli) Read-out: IC50 Value: ?
Output: 4.9

Input: Item: CC[C@H](C)[C@H](N)C(=O)NS(=O)(=O)OC[C@H]1O[C@@H](n2cnc3c(Nc4ccccc4)ncnc32)[C@H](O)[C@@H]1O [6e] Test system: E. coli IleRS (Escherichia coli) Read-out: IC50 Value: ?
Output: 10.5

Input: Item: CCCCCCCCNc1ncnc2c1ncn2[C@@H]1O[C@H](COS(=O)(=O)NC(=O)[C@@H](N)[C@@H](C)CC)[C@@H](O)[C@H]1O [6b] Test system: E. coli IleRS (Escherichia coli) Read-out: IC50 Value: ?
Output: 42.8
